Target: biotinylated labeled human GPC3 protein (produced in-house) (human, UniProt P51654 25-559, limits assumed, biotinylated (Dojindo, Cat. No. LK03); sites not stated)
Experiment: ELISA, biotinylated human GPC3 protein

Binder: hAb007LH1L1e (antibody, human IgG1, V domains shown, Humanized F3.81.19; VH H1 + VL L1e; expressed as human IgG1) VH: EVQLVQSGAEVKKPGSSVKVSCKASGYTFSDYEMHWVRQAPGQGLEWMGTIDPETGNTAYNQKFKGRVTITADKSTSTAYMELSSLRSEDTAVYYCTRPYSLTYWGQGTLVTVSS VL: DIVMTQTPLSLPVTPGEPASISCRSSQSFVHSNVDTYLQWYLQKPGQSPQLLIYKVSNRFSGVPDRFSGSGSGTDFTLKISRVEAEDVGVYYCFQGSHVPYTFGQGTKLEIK
OD450 at 0.0004 nM (OD450): 0.049
--
Binder: hAb007LH1L1d (antibody, human IgG1, V domains shown, Humanized F3.81.19; VH H1 + VL L1d; expressed as human IgG1) VH: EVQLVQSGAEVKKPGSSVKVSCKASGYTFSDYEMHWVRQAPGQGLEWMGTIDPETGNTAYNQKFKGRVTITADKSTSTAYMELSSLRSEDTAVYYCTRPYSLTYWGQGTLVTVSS VL: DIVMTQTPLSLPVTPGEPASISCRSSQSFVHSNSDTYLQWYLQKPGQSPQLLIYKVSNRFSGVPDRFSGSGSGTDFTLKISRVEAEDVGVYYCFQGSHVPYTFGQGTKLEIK
OD450 at 0.0004 nM (OD450): 0.059
--
Binder: hAb006LH3L1c (antibody, human IgG1, V domains shown, Humanized F3.38.7; VH H3 + VL L1c; expressed as human IgG1) VH: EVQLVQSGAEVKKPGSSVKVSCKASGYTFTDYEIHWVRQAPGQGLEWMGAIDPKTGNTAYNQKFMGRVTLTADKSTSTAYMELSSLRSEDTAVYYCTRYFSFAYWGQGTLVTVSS VL: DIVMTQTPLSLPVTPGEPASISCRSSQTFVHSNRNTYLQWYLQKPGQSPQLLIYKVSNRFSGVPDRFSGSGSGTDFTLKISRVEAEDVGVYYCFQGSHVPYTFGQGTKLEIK
OD450 at 0.0004 nM (OD450): 0.071
--
Binder: hAb006LH3L1d (antibody, human IgG1, V domains shown, Humanized F3.38.7; VH H3 + VL L1d; expressed as human IgG1) VH: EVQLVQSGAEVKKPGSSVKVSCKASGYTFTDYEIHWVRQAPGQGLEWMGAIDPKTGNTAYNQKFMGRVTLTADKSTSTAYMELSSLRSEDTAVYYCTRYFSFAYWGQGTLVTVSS VL: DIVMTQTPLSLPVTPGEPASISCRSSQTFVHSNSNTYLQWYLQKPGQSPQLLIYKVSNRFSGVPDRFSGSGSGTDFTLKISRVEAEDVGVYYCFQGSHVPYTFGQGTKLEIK
OD450 at 0.0004 nM (OD450): 0.058
--
Binder: hAb007LH1L1c (antibody, human IgG1, V domains shown, Humanized F3.81.19; VH H1 + VL L1c; expressed as human IgG1) VH: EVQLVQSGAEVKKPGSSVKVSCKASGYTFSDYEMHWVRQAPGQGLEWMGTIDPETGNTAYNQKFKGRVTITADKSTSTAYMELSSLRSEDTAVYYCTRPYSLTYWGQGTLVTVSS VL: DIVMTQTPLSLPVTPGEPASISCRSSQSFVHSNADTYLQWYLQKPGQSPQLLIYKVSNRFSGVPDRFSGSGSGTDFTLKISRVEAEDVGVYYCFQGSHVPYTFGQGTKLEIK
OD450 at 0.0004 nM (OD450): 0.052
--
Binder: GC33 IgG (antibody, V domains shown, Control antibody expressed as complete IgG; also called codrituzumab) VH: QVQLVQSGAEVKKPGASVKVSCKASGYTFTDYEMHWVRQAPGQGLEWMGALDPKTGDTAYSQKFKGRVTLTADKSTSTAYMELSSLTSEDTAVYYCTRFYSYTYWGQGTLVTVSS VL: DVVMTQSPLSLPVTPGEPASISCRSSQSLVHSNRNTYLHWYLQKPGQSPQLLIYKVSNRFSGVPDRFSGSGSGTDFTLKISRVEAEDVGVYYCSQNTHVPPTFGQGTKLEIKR
OD450 at 0.0004 nM (OD450): 0.054
--
Binder: hAb006LH3L1e (antibody, human IgG1, V domains shown, Humanized F3.38.7; VH H3 + VL L1e; expressed as human IgG1) VH: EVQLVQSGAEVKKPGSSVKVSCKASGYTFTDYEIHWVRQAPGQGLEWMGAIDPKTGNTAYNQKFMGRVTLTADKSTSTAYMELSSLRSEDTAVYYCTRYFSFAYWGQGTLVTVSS VL: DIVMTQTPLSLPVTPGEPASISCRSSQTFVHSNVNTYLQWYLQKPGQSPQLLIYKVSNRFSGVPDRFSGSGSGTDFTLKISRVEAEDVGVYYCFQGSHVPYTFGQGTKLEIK
OD450 at 0.0004 nM (OD450): 0.06
